Experiment: Quantitative High-Throughput drug screen in 47 multiple myeloma cell lines against the NCATS MIPE library collection: KMS26_JCRB cell viability assay (AID 1918975); also: nearly all actives have a fitted effect of over 45% in size
Settings: KMS26 myeloma cells viability, CellTiter-Glo ATP, 48 h; series mostly up to 45.8 µM
Records with an inconclusive call do not appear. Calls of active or inactive are those of the source. Calls follow the shape of the dose curve; as a rule, active = well fitted cell-killing curve with a large enough effect; inconclusive = small, poorly fitted or top-dose-only effect, or effect the other way; inactive = no such curve, though single readings can be large or run the other way.
Pick one: yes (1) (active), no (0) (inactive)

# COMPOUND, LABEL_CLASS
records = [
    ("COc1ccccc1OCCNCC(O)COc1cccc2[nH]c3ccccc3c12 (configuration not stated)", "yes (1)"),
    ("CC1(CN2CCC(n3c(=O)[nH]c4ccccc43)CC2)OCc2ccccc2-n2cccc21 (configuration not stated)", "yes (1)"),
    ("NCCCCCC(=O)O", "no (0)"),
]

Tell me the assay call for "CCC1(c2ccccc2)C(=O)NCNC1=O" please. no (0)

Tell me the assay call for CN1C2CCC1CC(OC(=O)C(CO)c1ccccc1)C2 (configuration not stated) please. no (0)

Tell me the assay call for "CN1CCN(CCCN2c3ccccc3Sc3ccc(Cl)cc32)CC1" please. yes (1)

Tell me the assay call for "O=c1[nH]cc(F)c(=O)[nH]1" please. no (0)

Tell me the assay call for "CC(C)(C)C(=O)Oc1ccc(S(=O)(=O)Nc2ccccc2C(=O)NCC(=O)O)cc1" please. no (0)

Tell me the assay call for "CC(C)C(=O)Nc1ccc([N+](=O)[O-])c(C(F)(F)F)c1" please. yes (1)

Tell me the assay call for "CN1C(C(=O)Nc2ccccn2)=C(O)c2ccccc2S1(=O)=O" please. no (0)

Tell me the assay call for "Nc1nnc(-c2cccc(Cl)c2Cl)c(N)n1" please. no (0)

Tell me the assay call for CCN1CCCC1CNC(=O)c1cc(S(=O)(=O)CC)c(N)cc1OC (configuration not stated) please. no (0)
